experimental_protocol: Oral bioavailability in rat at 5 mg/kg
Format: ADME, organism-based
condition_parameters: in vivo

compound_structure	bioavailability (%)
CN(C)Cc1ccc([C@H]2C[C@@H]2C(=O)Nc2nc3ccc(-c4cn[nH]c4)cc3s2)cc1	35

----------
experimental_protocol: Lipophilicity, log D of the compound at pH 7.4
condition_parameters: buffer
metric: logD

compound	readout_number
CN(C)Cc1ccc(C2CC2C(=O)Nc2nc3ccc(-c4cn[nH]c4)cc3s2)cc1 (racemic)	3
CN(C)Cc1cccc([C@H]2C[C@@H]2C(=O)Nc2nc3ccc(-c4cn[nH]c4)cc3s2)c1 (racemic)	2.8
COc1ccc([C@H]2C[C@@H]2C(=O)Nc2nc3ccc(-c4cn[nH]c4)cc3s2)cc1	4.4
CCN(CC)Cc1cc([C@H]2C[C@@H]2C(=O)Nc2nc3ccc(-c4cn[nH]c4)cc3s2)ccc1OC	2.6
CN(C)Cc1ccc([C@H]2C[C@@H]2C(=O)Nc2nc3ccc(-c4cccnc4)cc3s2)cc1 (racemic)	2.7
COc1ccc(C2CC2C(=O)Nc2nc3ccc(-c4cn[nH]c4)cc3s2)cc1 (racemic)	4.4
CN(C)Cc1ccc([C@H]2C[C@@H]2C(=O)Nc2nc3ccc(-c4cn[nH]c4)cc3s2)cc1	3

----------
Attribute: solubility
experimental_protocol: Aqueous solubility of the compound at pH 7.4
Format: physicochemical
condition_parameters: buffer

molecule	solubility
CN(C)Cc1cccc([C@H]2C[C@@H]2C(=O)Nc2nc3ccc(-c4cn[nH]c4)cc3s2)c1 (racemic)	11 µM
CN(C)Cc1ccc(C2CC2C(=O)Nc2nc3ccc(-c4cn[nH]c4)cc3s2)cc1 (racemic)	< 1 µM
CN(C)Cc1ccc([C@H]2C[C@@H]2C(=O)Nc2nc3ccc(-c4cn[nH]c4)cc3s2)cc1	< 1 µM
CN(C)Cc1ccc([C@H]2C[C@@H]2C(=O)Nc2nc3ccc(-c4cccnc4)cc3s2)cc1 (racemic)	< 1 µM
COc1ccc(C2CC2C(=O)Nc2nc3ccc(-c4cn[nH]c4)cc3s2)cc1 (racemic)	< 1 µM
COc1ccc([C@H]2C[C@@H]2C(=O)Nc2nc3ccc(-c4cn[nH]c4)cc3s2)cc1	< 1 µM
CCN(CC)Cc1cc([C@H]2C[C@@H]2C(=O)Nc2nc3ccc(-c4cn[nH]c4)cc3s2)ccc1OC	180 µM
COc1ccc2nc(NC(=O)[C@H]3C[C@@H]3c3ccccc3)sc2c1 (racemic)	< 2 µM
COc1ccc([C@H]2C[C@@H]2C(=O)Nc2nc3ccc(OC)cc3s2)cc1 (racemic)	11 µM

----------
experimental_protocol: AUC (last) in rat at 5 mg/kg, po
Assay type: ADME, organism-based
Set-up: time 0 - last, dose 5 mg/kg, route oral
condition_parameters: plasma
metric: AUC(0-t) (µM·h)

compound_structure	unit_name	readout_number
CN(C)Cc1ccc([C@H]2C[C@@H]2C(=O)Nc2nc3ccc(-c4cn[nH]c4)cc3s2)cc1	µM·h	4.8

----------
Attribute: Ki
measured_on: Tyrosine-protein kinase ITK/TSK (Homo sapiens, UniProt Q08881)
Sequence (Q08881 whole entry): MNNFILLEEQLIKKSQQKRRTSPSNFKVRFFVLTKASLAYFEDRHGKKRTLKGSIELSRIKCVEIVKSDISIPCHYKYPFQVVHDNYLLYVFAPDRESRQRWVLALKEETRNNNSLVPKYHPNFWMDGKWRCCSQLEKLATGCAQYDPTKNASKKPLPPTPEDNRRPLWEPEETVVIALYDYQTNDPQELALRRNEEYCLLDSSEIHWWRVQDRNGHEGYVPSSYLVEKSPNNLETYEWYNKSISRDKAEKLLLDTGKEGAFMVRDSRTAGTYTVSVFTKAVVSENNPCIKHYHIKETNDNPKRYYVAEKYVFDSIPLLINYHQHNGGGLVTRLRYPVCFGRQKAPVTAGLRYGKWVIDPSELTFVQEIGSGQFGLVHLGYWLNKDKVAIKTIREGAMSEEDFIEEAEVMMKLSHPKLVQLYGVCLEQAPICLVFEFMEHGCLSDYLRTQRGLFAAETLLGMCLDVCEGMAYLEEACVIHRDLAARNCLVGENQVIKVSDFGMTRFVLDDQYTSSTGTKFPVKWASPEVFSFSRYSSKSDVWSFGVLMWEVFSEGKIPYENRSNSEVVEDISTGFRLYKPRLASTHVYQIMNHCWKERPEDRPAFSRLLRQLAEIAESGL

compound	unit_name	Ki
CN(C)Cc1ccc([C@H]2C[C@@H]2C(=O)Nc2nc3ccc(-c4cn[nH]c4)cc3s2)cc1	nM	0.7
CN(C)Cc1ccc(C2CC2C(=O)Nc2nc3ccc(-c4cn[nH]c4)cc3s2)cc1 (racemic)	nM	0.6
COc1ccc([C@H]2C[C@@H]2C(=O)Nc2nc3ccc(-c4cncc(CO)c4)cc3s2)cc1 (racemic)	nM	5.3
